System: 931267-113-T-J1-PDC KRAS spheroid with HUVEC/MSC, viability;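 note: compound exposure lasted 7 days before the readout; 100% = DMSO vehicle control viability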
experiment.description: Anticancer human tumor 931267-113-T-J1-PDC patient-derived colon adenocarcinoma cell line growth inhibition [KRAS2]
condition.set: second compound 0.1 µM; first compound 10 µM; stronger effect = lower value

molecule	scale.unit	viability, T/C
CC1(C)CCC(CN2CCN(c3ccc(C(=O)NS(=O)(=O)c4ccc(NCC5CCOCC5)c([N+](=O)[O-])c4)c(Oc4cnc5[nH]ccc5c4)c3)CC2)=C(c2ccc(Cl)cc2)C1 + C=CC(=O)N1CCN(c2nc(=O)n(-c3c(C)ccnc3C(C)C)c3nc(-c4c(O)cccc4F)c(F)cc23)C(C)C1	%	5.11
O=C(c1cc(Cc2n[nH]c(=O)c3ccccc23)ccc1F)N1CCN(C(=O)C2CC2)CC1 + C=CC(=O)N1CCN(c2nc(OCC3CCCN3C)nc3c2CCN(c2cccc4cccc(C)c24)C3)CC1CC#N	%	84.7
COc1cc(Nc2ncc3c(n2)-c2ccc(Cl)cc2C(c2c(F)cccc2OC)=NC3)ccc1C(=O)O + COc1cc2nc(C)nc(NC(C)c3cc(N)cc(C(F)(F)F)c3)c2cc1OC1CCOC1	%	57
COC(=O)c1ccc2c(C(=Nc3ccc(N(C)C(=O)CN4CCN(C)CC4)cc3)c3ccccc3)c(O)[nH]c2c1 + CC1OCC2(CCN(c3cnc(Sc4ccnc(N)c4Cl)c(N)n3)CC2)C1N	%	0.35
COc1cc(Nc2ncc3c(n2)-c2ccc(Cl)cc2C(c2c(F)cccc2OC)=NC3)ccc1C(=O)O + CC1OCC2(CCN(c3cnc(Sc4ccnc(N)c4Cl)c(N)n3)CC2)C1N	%	54
